Biological target: Cytochrome P450 2C19 (Homo sapiens)
Assay: Cytochrome panel assay with activity outcomes
Conditions: recombinant CYP, pro-luciferin dealkylation, luminescence, p450-cyp2c19; series mostly up to 57.1 µM
Among all 16,000 compounds or so, about 5,800 (36%) were called active. Roughly 23% stayed inconclusive and do not appear here. The call rests on the fitted dose curve; in most records, active means well fitted curve in the direction sought with a large enough effect; inconclusive means small, poorly fitted or top-dose-only effect, or effect the other way; inactive means no such curve, though single readings can be large or run the other way. This is one part of the list.
Classes used: active, inactive

>>> class_label("COc1ccc(C(C(=O)NC2CCCC2)N(Cc2ccc(F)cc2)C(=O)c2ccn[nH]2)cc1OC (stereo not drawn)")
"active"
>>> class_label("N#Cc1c(-c2ccccc2)cc(C2CC2)nc1SCC(=O)c1cccs1")
"inactive"
>>> class_label("N#Cc1c(-c2cccs2)nc(SCC(=O)c2cccs2)[nH]c1=O")
"active"

Where these numbers come from: PubChem BioAssay AID1851
